Molecular target: T1, BAM3^QYY extracellular domain (BAM3^QYY-ECD) (Arabidopsis thaliana, UniProt O65440 30-651, Q226A | Y228A | Y231A)
T1 sequence: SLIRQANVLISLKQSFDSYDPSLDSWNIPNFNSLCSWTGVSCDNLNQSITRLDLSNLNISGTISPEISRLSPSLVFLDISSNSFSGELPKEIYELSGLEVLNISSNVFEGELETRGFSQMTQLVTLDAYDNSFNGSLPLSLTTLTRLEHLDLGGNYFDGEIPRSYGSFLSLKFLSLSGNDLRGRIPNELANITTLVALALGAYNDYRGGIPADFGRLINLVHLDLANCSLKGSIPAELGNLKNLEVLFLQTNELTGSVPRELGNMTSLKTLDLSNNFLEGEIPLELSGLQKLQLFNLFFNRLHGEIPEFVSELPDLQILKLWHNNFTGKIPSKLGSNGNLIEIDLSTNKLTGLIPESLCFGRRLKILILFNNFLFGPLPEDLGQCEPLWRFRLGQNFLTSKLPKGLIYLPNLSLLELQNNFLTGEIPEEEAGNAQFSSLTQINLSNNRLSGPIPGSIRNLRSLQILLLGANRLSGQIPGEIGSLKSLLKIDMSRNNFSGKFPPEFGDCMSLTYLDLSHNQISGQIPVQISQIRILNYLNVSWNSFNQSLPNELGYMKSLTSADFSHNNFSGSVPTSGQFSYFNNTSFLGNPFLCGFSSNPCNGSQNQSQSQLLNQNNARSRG
Test: ITC
readout: Kd (nM)
One number for each entry, in nM.

Ask: // Input: RRVRRGSDPIHN (CLE45, mature 12-residue CLE peptide of Arabidopsis; also called synthetic CLE45 peptide; source: synthetic peptide (Peptide Specialty Laboratories, Heidelberg)) [CLE45 peptide] . Output its Kd only.
Reply: 1110
